System: baby hamster kidney (BHK) cells
Measurement notes: BHK cell growth inhibition
Assay type: cell-based
Particulars: read-out: EC50, BHK growth inhibition
pEC50: −log10 of the molar value.

{"Compound structure string": "O=C(N[C@H]1CCc2cc(O)c(O)c(O)c2-c2ccc(O)c(=O)cc21)c1cc(O)c(O)c(O)c1", "pEC50": 4.55}

====

System: human osteogenic sarcoma (HOS) cells
Measurement notes: HOS cell growth inhibition (antiproliferative activity)
Type: cell-based
Particulars: Table 1, read-out: HOS--EC50

{"Compound structure string": "O=C(N[C@H]1CCc2cc(O)c(O)c(O)c2-c2ccc(O)c(=O)cc21)C(F)(F)F", "EC50": "28 µM"}
{"Compound structure string": "O=C(N[C@H]1CCc2cc(O)c(O)c(O)c2-c2ccc(O)c(=O)cc21)c1cc(O)c(O)c(O)c1", "EC50": "21 µM"}

====

Tested on: BHK-Ve cells (BHK-B cells treated with vincristine in the presence of verapamil)
Measurement notes: BHK-Ve cell growth inhibition
Type: cell-based, hamster
Particulars: read-out: EC50, BHK-Ve cells
The following molecules are listed with their measured EC50 values.

{"Compound structure string": "O=C(N[C@H]1CCc2cc(O)c(O)c(O)c2-c2ccc(O)c(=O)cc21)C(F)(F)F", "Unit info": "µM", "EC50": 37}
{"Compound structure string": "O=C(N[C@H]1CCc2cc(O)c(O)c(O)c2-c2ccc(O)c(=O)cc21)c1cc(O)c(O)c(O)c1", "Unit info": "µM", "EC50": 24}
